Origin of measurements: ChEMBL document CHEMBL2321686

- assay_text: Clearance in Sprague-Dawley rat at 10 mg/kg, iv by LC/MS/MS analysis
- Format: ADME, organism-based
- Set-up: dose 10 mg/kg, route intravenous
- run_conditions: in vivo

molecule: N[C@](CCCCB(O)O)(CCN1CCCCC1)C(=O)O
clearance: 7.89 mL/min/kg

---

- assay_text: Volume of distribution at steady state in Sprague-Dawley rat at 10 mg/kg, iv by LC/MS/MS analysis
- Type: ADME, organism-based
- Set-up: dose 10 mg/kg, route intravenous
- run_conditions: in vivo, read-out: Vdss
measured_parameter: Vd (L/kg)

molecule: N[C@](CCCCB(O)O)(CCN1CCCCC1)C(=O)O
measured_parameter: Vd
obs_value: 1.86
